# target_entity: USP1 (construct USP1 (I-785, GG670, 671AA)/UAF1 (I-677)-Flag) (Homo sapiens (Human), UniProt O94782, G670A/G671A)
# Sequence (O94782 whole entry G670A/G671A): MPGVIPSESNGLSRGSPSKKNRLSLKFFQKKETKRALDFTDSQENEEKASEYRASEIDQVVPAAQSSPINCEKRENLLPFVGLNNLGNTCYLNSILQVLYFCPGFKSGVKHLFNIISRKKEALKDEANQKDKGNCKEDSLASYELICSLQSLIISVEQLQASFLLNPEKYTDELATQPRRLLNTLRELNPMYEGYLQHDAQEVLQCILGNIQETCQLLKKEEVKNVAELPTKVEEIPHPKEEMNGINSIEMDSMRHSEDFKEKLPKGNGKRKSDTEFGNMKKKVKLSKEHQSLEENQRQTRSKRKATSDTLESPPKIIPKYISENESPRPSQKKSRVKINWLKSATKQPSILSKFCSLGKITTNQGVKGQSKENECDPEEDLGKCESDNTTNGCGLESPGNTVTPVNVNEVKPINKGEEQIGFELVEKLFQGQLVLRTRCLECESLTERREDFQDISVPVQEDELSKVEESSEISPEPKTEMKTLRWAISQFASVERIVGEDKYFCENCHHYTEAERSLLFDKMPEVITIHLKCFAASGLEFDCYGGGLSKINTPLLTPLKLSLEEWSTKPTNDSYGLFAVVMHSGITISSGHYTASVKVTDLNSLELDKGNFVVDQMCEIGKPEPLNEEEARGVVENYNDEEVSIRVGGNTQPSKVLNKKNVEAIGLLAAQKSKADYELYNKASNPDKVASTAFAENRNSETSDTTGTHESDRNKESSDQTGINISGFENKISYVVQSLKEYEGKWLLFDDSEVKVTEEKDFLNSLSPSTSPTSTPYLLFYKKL
# Sequence (Q8TAF3 whole entry partner): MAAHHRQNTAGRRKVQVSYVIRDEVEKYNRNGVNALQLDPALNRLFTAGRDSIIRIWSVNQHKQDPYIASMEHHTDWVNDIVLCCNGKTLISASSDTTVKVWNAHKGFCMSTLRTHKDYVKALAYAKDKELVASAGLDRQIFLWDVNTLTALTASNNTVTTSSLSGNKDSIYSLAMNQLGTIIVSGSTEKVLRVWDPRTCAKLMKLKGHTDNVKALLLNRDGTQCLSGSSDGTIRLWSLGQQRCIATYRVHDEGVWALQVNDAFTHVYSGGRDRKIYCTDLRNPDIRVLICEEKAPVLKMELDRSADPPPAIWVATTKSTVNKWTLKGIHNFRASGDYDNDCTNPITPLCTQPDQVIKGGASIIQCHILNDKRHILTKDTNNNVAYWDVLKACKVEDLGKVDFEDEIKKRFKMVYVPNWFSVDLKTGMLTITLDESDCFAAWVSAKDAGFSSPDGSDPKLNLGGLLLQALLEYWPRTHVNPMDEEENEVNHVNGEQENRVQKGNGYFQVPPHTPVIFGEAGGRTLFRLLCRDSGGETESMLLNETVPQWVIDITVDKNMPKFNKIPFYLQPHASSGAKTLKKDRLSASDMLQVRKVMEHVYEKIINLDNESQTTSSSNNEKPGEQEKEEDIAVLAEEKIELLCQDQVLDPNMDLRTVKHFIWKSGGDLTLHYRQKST
# protocol_notes: Ubiquitin-Rhodamine 110 assay for USP1 activity
# conditions_used: USP1/UAF1 25 pM, Ub-Rh110 25 nM, 30 min preincubation
# Description: Example 53: Ubitquin-Rhodamine 110 Assay for USP1 Activity […] Nanoliter quantities of either an 8-point or 10-point, 3-fold serial dilution in DMSO was pre-dispensed into assay plates (Perkin Elmer, ProxiPlate-384 F Plus, #6008269) for a final test concentration range of either 25 μM to 11 nM or 25 μM to 1.3 nM, respectively. […] Fluorescence was read on the Envision (Excitation at 485 nm and Emission at 535 nm; Perkin Elmer) or on the PheraSTAR (Excitation at 485 nm and Emission at 535 nm; BMG Labtech). […]
observation_type: IC50

> print(dat)
                                   compound  observation.type        measured
1  CC(C)c1ccccc1-c1ncc2[nH]c(=O)n(CC3(F)CCN(c4cccnc4)CC3)c2n1              IC50  200 to 2000 nM
2  CC(C)c1ccccc1-c1ncc2[nH]c(=O)n(Cc3ccc(-n4ccc(N5CCOCC5)n4)cc3)c2n1              IC50         < 50 nM
3  CC(Oc1ncccc1-c1ncc2[nH]c(=O)n(Cc3ccc(-c4nc(C(F)(F)F)cn4C)cc3)c2n1)C(F)(F)F (centres unmarked)              IC50         < 50 nM
4  CC(=O)N1CCC(c2ccn(-c3ccc(Cn4c(=O)[nH]c5cnc(-c6ccccc6C(C)C)nc54)cc3)n2)C1 (centres unmarked)              IC50    50 to 200 nM

Continue with the compound presented below.
Incoming: Reported IC50, compound Cn1cc(C(F)(F)F)nc1-c1ccc(Cn2c(=O)[nH]c3cnc(-c4cccnc4N4CCCCC4)nc32)cc1 : ____
Outgoing: < 50 nM

----------
# target_entity: USP1 (construct USP1 (I-785, GG670, 671AA)/UAF1 (I-677)-Flag) (Homo sapiens (Human), UniProt O94782, G670A/G671A)
# protocol_notes: Ubiquitin-Rhodamine 110 assay for USP1 activity
# conditions_used: USP1/UAF1 25 pM, Ub-Rh110 25 nM, 30 min preincubation
observation_type: IC50

Illustrative cases are given below, each with its answer.
> print(dat)
                                   compound      measured
1  CC(C)c1ccccc1-c1ncc2[nH]c(=O)n(Cc3ccc(C(=O)NC4CC4)cc3)c2n1 [Compound I-353]  50 to 200 nM
2  O=c1[nH]c2cnc(-c3ccccc3C3CC3)nc2n1Cc1ccc(-n2cccn2)cc1 [Compound I-94]       < 50 nM

Incoming: Reported IC50, compound CC(C)c1ccccc1-c1ncc2[nH]c(=O)n([C@@H]3CCOc4ccccc43)c2n1 [Compound I-159] : ____
Outgoing: 200 to 2000 nM

Incoming: Next up: CC(C)c1ccccc1-c1ncc2c(n1)n(Cc1ccc(OCCCN(C)C)cc1)c(=O)n2C [Compound I-234]
Outgoing: > 2000 nM

Incoming: Next up: CC(C)c1cccc(F)c1-c1ncc2c(n1)n(Cc1ccc(-n3cccn3)cc1)c(=O)n2C [Compound I-11]
Outgoing: < 50 nM
